system name: T1, 4H486-AA
T1 chain: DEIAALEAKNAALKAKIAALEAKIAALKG
assay details: two-hybrid library CCmax;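 also: natural log of median RNA to DNA barcode read ratio; higher means stronger binding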
stated conditions: mean of both orientations
Doc: threshold -0.3 (exclusive). Items with interaction score beneath it return Condition met; others return Condition not met.

[[record]]
binder = "DKNAALKAENAALKAEIAALEAKIAALKG [4H3782-AA]"
class_name = "Condition not met"

[[record]]
binder = "DKIAALKAEIAALEAKIAALEAKNAALKG [4H2600-AA]"
class_name = "Condition not met"

[[record]]
binder = "DENAALEAEIAALKAKIAALKAKNAALKG [4H1136-AA]"
class_name = "Condition met"

[[record]]
binder = "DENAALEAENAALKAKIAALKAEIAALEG [4H1257-AA]"
class_name = "Condition not met"

[[record]]
binder = "DKNAALKAEIAALKAEIAALEAENAALEG [4H3651-AA]"
class_name = "Condition met"

